Hey, just so you know, these numbers are from patent US20090215841A1.

target: D2s receptor (membranes from D2s stably-transfected CHO cells) (Homo sapiens); assay: GTPγS assay, block of dopamine-stimulated [35S]-GTPγS binding
Sequence (P14416 1-414 isoform P14416-2): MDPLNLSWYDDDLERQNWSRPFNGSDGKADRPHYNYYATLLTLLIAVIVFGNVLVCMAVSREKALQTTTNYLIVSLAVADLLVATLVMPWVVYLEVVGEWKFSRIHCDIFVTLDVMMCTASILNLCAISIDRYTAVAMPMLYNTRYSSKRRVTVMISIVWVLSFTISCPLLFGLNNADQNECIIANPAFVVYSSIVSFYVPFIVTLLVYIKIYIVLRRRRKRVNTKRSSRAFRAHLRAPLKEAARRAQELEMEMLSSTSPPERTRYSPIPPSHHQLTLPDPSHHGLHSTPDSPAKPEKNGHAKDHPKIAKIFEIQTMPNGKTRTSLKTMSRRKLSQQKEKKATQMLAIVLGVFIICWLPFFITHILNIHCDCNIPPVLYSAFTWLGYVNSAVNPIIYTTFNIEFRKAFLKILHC
ASSAY METRIC: pIC50
In plain terms, pIC50 is the concentration in mol/L turned into minus its base-10 logarithm.

>>> observed_measurement("CCCN[C@@H]1Cc2cc3nc(N)sc3cc2C1")
6.36
>>> observed_measurement("CCN(CC)[C@@H]1Cc2cc3nc(N)sc3cc2C1")
7.13

With those in mind, consider the next compound.
*Q* # query: pIC50 of entry CN[C@@H]1Cc2cc3nc(N)sc3cc2C1
*A* 6.38
